Molecular target: Metabotropic glutamate receptor 8 (Rattus norvegicus)
Assay: mGluR8 Gi/Go-coupled signaling modulation – cell-based, rat, thallium flux, HTS, primary screen (AID 488969)
Details: HEK293 rat mGluR8, GIRK thallium flux, FluoZin2; at 10 µM; stronger effect = higher value; submaximal glutamate (EC20) added with thallium
The full ranking holds about 110,000 compounds; the median of “z-score” is about -0.1, and the highest 2% start at about 2. The sample holds the highest values, similar compounds and a random draw of the others, so the mix is not that of the screen.
Quick reference: z-score of the listed items.
Keep it simple and answer with nothing but the number.

Completed entries (count: 4):
> print(dat)
                                        smi  reported.metric  measured.number
1          Cn1c(=O)c2c(nc(NCCO)n2C)n(C)c1=O          z-score            0.204
2  O=C1CN(C(=O)CSc2nc3ccccc3c(=O)n2Cc2ccc(F)cc2)c2ccccc2N1          z-score             3.79
3                    CCC(=O)Nc1nnc(SCCOC)s1          z-score            0.214
4  O=C1CN(C(=O)CSc2nc3ccccc3n2CCc2ccccc2)c2ccccc2N1          z-score           -0.346

// next entry
Give its z-score value. Item: CCS(=O)(=O)N1CCN(C(=O)C(c2ccccc2)c2ccccc2)CC1 -0.138

---

Biological target: Metabotropic glutamate receptor 8 (Rattus norvegicus) (UniProt P70579)
Sequence (P70579 whole entry, looked up): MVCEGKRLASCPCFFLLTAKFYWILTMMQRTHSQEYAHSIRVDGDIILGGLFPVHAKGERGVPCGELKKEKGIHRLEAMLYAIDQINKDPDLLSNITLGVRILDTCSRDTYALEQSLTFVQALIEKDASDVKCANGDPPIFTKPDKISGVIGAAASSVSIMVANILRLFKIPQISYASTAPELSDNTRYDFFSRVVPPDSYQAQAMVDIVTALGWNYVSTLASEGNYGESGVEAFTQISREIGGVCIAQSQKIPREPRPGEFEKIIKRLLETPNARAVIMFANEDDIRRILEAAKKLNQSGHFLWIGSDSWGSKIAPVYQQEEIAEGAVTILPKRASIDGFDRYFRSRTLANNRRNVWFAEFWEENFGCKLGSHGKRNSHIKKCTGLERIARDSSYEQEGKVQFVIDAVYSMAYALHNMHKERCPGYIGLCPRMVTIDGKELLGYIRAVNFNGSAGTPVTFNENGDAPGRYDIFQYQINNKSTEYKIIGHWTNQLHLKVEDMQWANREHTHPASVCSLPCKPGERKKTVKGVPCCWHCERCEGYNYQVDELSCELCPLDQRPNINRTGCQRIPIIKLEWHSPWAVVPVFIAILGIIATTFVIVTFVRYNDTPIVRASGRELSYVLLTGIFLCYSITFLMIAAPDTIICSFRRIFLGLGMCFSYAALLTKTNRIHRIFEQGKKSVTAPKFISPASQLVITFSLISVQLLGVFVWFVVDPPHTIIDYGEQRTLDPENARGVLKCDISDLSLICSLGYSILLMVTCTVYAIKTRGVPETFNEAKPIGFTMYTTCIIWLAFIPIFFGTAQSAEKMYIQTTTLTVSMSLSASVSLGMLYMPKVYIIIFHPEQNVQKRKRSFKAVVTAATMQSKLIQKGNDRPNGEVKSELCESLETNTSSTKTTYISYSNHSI
Assay: mGluR8 Gi/Go-coupled signaling modulation – cell-based, rat, thallium flux, HTS, primary screen (AID 488969)
Settings: HEK293 rat mGluR8, GIRK thallium flux, FluoZin2; at 10 µM; stronger effect = higher value; submaximal glutamate (EC20) added with thallium
In all, about 110,000 compounds were measured (“z-score”: median about -0.1, highest 2% from about 2 on). The full list was thinned out, with the highest values kept by preference.
Output schema: class label derived from z-score. Mapping: bottom = under -0.1, middle = from -0.1 up to 0.5, top = 0.5 and over

# count of solved cases: 2
> print(dat)
                                   molecule  category
1  COc1cccc(C(CC(=O)Nc2cccc3ccccc23)NC(=O)c2ccccc2)c1 (centres undefined)       top
2  COc1cc2c(cc1NC(=O)Nc1ccc(C)cc1)oc1ccccc12    bottom

Bin? COCC(=O)Nc1nc2ccc(C)cc2s1 middle

Entry O=C(N/N=C/c1ccncc1)c1cc(Br)ccc1OCc1ccccc1 please middle

Entry CCOCC(=O)Nc1nc2ccc(C)cc2s1 please middle

---

Quick reference: z-score of the listed items.
Target: Metabotropic glutamate receptor 8 (Rattus norvegicus)
Assay: mGluR8 Gi/Go-coupled signaling modulation – cell-based, rat, thallium flux, HTS, primary screen (AID 488969)
Settings: HEK293 rat mGluR8, GIRK (G protein-gated inwardly rectifying potassium channel) thallium flux, FluoZin2; at 10 µM; stronger effect = higher value; submaximal glutamate (EC20) added with thallium
Whole data set: some 110,000 compounds, median “z-score” near -0.1, cut for the highest 2% near 2. Shown is part of a subset that was picked to be rich in the highest values.
Keep it simple and answer with nothing but the number.

Give its z-score value. Item: COCC(=O)Nc1cccc2ccccc12 0.3

Entry CNCCCOc1ccc(C(C)(C)c2ccccc2)cc1 please 0.32

Entry Cc1cc(NC(=O)c2c(F)cccc2Cl)n(-c2nc3ccccc3[nH]2)n1 please 3.06

Entry NC(=O)Nc1cccc2ccccc12 please 4.53
